The values you see were collected from patent US12122774B2.

experiment: In vivo pharmacokinetic experiment; parameters: species or system CD-1 female mice; settings: female, CD-1, mouse, plasma, iv; mice, injection 2 mg/kg

compound	AUC(0-t) (ng·h/mL)
Cc1cc2c(C(N)=O)c(N)n(-c3c(C)c(O)cc(F)c3C)c2nc1C (single isomer, unassigned)	338

* * *

assay: in vitro; details: dog, MDCK, Papp Mean

compound	Papp A→B at 90 min, 5 µM / ×10⁻⁶ cm/s
Cc1cc2c(C(N)=O)c(N)n(-c3c(C)c(O)cc(F)c3C)c2nc1C (single isomer, unassigned)	27.1

* * *

test system: MIA PaCa-2 cells; test: In vitro anti-proliferative activity against MIA PaCa-2 cells (compound alone); format: cell-based; conditions: Homo sapiens, MIA PaCa-2, 72 h, intracellular ATP content
pIC50: −log10 of the molar value.

compound	pIC50
Cc1cc2c(C(N)=O)c(N)n(-c3c(C)c(O)cc4c3CCC4)c2nc1C [Compound 116]	< 5.00
Cc1cc2c(C(N)=O)c(N)n(-c3c(C)ccc(O)c3C)c2nc1C#N [Compound 12]	< 5.00
Cc1cc2c(C(N)=O)c(N)n(-c3c(C)cc4cc[nH]c4c3C)c2nc1C [Compound 153]	< 5.00
